Reference source: paper PMC6271529

Reported ED50 values are given for each entry in this list.
system: maximal electroshock-induced seizures; assay: Maximal electroshock-induced seizure (MES) test in mice; assay type: in vivo, mouse; details: Mus musculus, ip, pretreatment time 120 min, mice; read-out: ED50 ± S.E. (MES test)

compound	ED50, mg/kg
S=c1[nH]nc(-c2cccc(Cl)c2)n1-c1ccc(Cl)cc1	184
Fc1ccc(-n2c(-c3ccc(Cl)cc3)n[nH]c2=S)c(F)c1 [Compound 13a]	80
S=c1[nH]nc(-c2ccc(Cl)cc2)n1-c1ccc(Br)cc1 [Compound 16a]	141
S=c1[nH]nc(-c2cccc(Cl)c2)n1-c1ccc(Br)cc1	336

----------
tested on: GABAA receptors; assay: Radioligand binding assay, [3H]muscimol, rat cerebral cortex; details: compound 1 × 10^−6 M, [3H]muscimol, rat cerebral cortex;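 further: low percentages indicate weak binding of the compound to the receptor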
Percent of Specific Binding, GABAA reference
experimental_endpoint: Percent of Specific Binding, GABAA (%)

compound	experimental_endpoint	reading_unit	assay_result
Fc1ccccc1-n1c(-c2cccc(Cl)c2)n[nH]c1=S [Compound 1a]	Percent of Specific Binding, GABAA	%	8
Cc1ccc(-n2c(-c3cccc(Cl)c3)nn(CN3CCOCC3)c2=S)cc1 [Compound 22a]	Percent of Specific Binding, GABAA	%	6
S=c1[nH]nc(-c2cccc(Cl)c2)n1-c1ccc(Br)cc1 [Compound 6a]	Percent of Specific Binding, GABAA	%	17

----------
tested on: maximal electroshock-induced seizures; test: Maximal electroshock-induced seizure (MES) test in mice; format: in vivo, mouse; conditions: 300 mg/kg i.p., pretreatment time 60 min, mice
Measured p/t, number of animals protected against MES-induced seizures / number tested, listed per entry.
experimental_endpoint: p/t, number of animals protected against MES-induced seizures / number tested

molecule	assay_result
Fc1ccc(-n2c(-c3ccc(Cl)cc3)n[nH]c2=S)c(F)c1 [Compound 13a]	8/8
S=c1[nH]nc(-c2cccc(Cl)c2)n1-c1ccc(Cl)cc1 [Compound 4a]	7/8
S=c1n(CN2CCOCC2)nc(-c2cccc(Cl)c2)n1-c1ccc(Br)cc1 [Compound 19a]	0/8
Cc1ccc(-n2c(-c3cccc(Cl)c3)nn(CN3CCN(c4ccc(F)cc4)CC3)c2=S)cc1 [Compound 24a]	0/8
S=c1n(CN2CCOCC2)nc(-c2ccc(Cl)cc2)n1-c1ccccc1Br [Compound 25a]	0/8
Fc1ccc(N2CCN(Cn3nc(-c4cccc(Cl)c4)n(-c4ccc(Br)cc4)c3=S)CC2)cc1 [Compound 21a]	0/8
S=c1[nH]nc(-c2ccc(Cl)cc2)n1-c1ccc(Br)cc1 [Compound 16a]	8/8
Cc1ccccc1-n1c(-c2cccc(Cl)c2)n[nH]c1=S [Compound 8a]	0/8
CSc1ccc(-n2c(-c3ccc(Cl)cc3)n[nH]c2=S)cc1 [Compound 17a]	1/8
Cc1cccc(-n2c(-c3cccc(Cl)c3)n[nH]c2=S)c1 [Compound 9a]	0/8
Cc1ccc(-n2c(-c3cccc(Cl)c3)n[nH]c2=S)cc1 [Compound 10a]	8/8
S=c1n(CN2CCN(c3ccccc3)CC2)nc(-c2ccc(Cl)cc2)n1-c1ccc(Br)cc1 [Compound 29a]	0/8
CCN(CC)c1ccc(-n2c(-c3ccc(Cl)cc3)n[nH]c2=S)cc1 [Compound 18a]	1/8
S=c1n(CN2CCN(c3ccccc3)CC2)nc(-c2cccc(Cl)c2)n1-c1ccc(Br)cc1 [Compound 20a]	0/8
S=c1n(CN2CCOCC2)nc(-c2ccc(Cl)cc2)n1-c1ccc(Br)cc1 [Compound 28a]	0/8
S=c1[nH]nc(-c2cccc(Cl)c2)n1-c1ccc(I)cc1 [Compound 7a]	0/8
CC(=O)c1ccc(-n2c(-c3cccc(Cl)c3)n[nH]c2=S)cc1 [Compound 11a]	1/8
Cc1ccc(-n2c(-c3cccc(Cl)c3)nn(CN3CCOCC3)c2=S)cc1 [Compound 22a]	3/8
Fc1ccccc1-n1c(-c2ccc(Cl)cc2)n[nH]c1=S [Compound 12a]	7/8
Fc1cccc(-n2c(-c3cccc(Cl)c3)n[nH]c2=S)c1 [Compound 2a]	0/8
S=c1[nH]nc(-c2cccc(Cl)c2)n1-c1ccccc1Br [Compound 5a]	1/8
S=c1[nH]nc(-c2ccc(Cl)cc2)n1-c1ccccc1Br [Compound 15a]	8/8
Cc1ccc(-n2c(-c3cccc(Cl)c3)nn(CN3CCN(c4ccccc4)CC3)c2=S)cc1 [Compound 23a]	0/8
Fc1ccc(N2CCN(Cn3nc(-c4ccc(Cl)cc4)n(-c4ccc(Br)cc4)c3=S)CC2)cc1 [Compound 30a]	0/8
S=c1[nH]nc(-c2cccc(Cl)c2)n1-c1ccc(Br)cc1 [Compound 6a]	6/8
Fc1ccc(N2CCN(Cn3nc(-c4ccc(Cl)cc4)n(-c4ccccc4Br)c3=S)CC2)cc1 [Compound 27a]	0/8
S=c1n(CN2CCN(c3ccccc3)CC2)nc(-c2ccc(Cl)cc2)n1-c1ccccc1Br [Compound 26a]	0/8
Fc1ccccc1-n1c(-c2cccc(Cl)c2)n[nH]c1=S [Compound 1a]	1/8

----------
Measured ED50 accompanies every entry in the list below.
system: maximal electroshock-induced seizures; assay: Maximal electroshock-induced seizure (MES) test in mice; assay type: in vivo, mouse; details: Mus musculus, ip, pretreatment time 30 min, mice; read-out: ED50 ± S.E. (MES test)
experimental_endpoint: ED50 (mg/kg)

compound	assay_result
Fc1ccc(-n2c(-c3ccc(Cl)cc3)n[nH]c2=S)c(F)c1 [Compound 13a]	100
S=c1[nH]nc(-c2ccc(Cl)cc2)n1-c1ccc(Br)cc1 [Compound 16a]	182
S=c1[nH]nc(-c2cccc(Cl)c2)n1-c1ccc(Br)cc1 [Compound 6a]	218
Fc1ccccc1-n1c(-c2ccc(Cl)cc2)n[nH]c1=S [Compound 12a]	186
S=c1[nH]nc(-c2cccc(Cl)c2)n1-c1ccc(Cl)cc1 [Compound 4a]	135

----------
# ED50 values compiled below
system: maximal electroshock-induced seizures; experiment: Maximal electroshock-induced seizure (MES) test in mice; assay type: in vivo, mouse; conditions: Mus musculus, ip, pretreatment time 30 min, mice; read-out: ED50 ± S.E. (MES test)

molecule	ED50, mg/kg
Fc1ccc(-n2c(-c3cccc(Cl)c3)n[nH]c2=S)cc1	93.6
Cc1ccc(-n2c(-c3cccc(Cl)c3)nn(CN3CCOCC3)c2=S)cc1 [Compound 22a]	228
CCCC(CCC)C(=O)O [Valproate, Magnesium valproate]	217
S=c1[nH]nc(-c2ccc(Cl)cc2)n1-c1ccccc1Br [Compound 15a]	105

----------
test system: maximal electroshock-induced seizures; experiment: Maximal electroshock-induced seizure (MES) test in mice; type: in vivo, mouse; settings: Mus musculus, ip, pretreatment time 15 min, mice; read-out: ED50 ± S.E. (MES test)
experimental_endpoint: ED50 (mg/kg)

compound	target	assay_result
Cc1ccc(-n2c(-c3cccc(Cl)c3)nn(CN3CCOCC3)c2=S)cc1 [Compound 22a]	maximal electroshock-induced seizures	224
S=c1[nH]nc(-c2ccc(Cl)cc2)n1-c1ccc(Br)cc1 [Compound 16a]	maximal electroshock-induced seizures	272
S=c1[nH]nc(-c2cccc(Cl)c2)n1-c1ccc(Br)cc1	maximal electroshock-induced seizures	298
Fc1ccccc1-n1c(-c2ccc(Cl)cc2)n[nH]c1=S [Compound 12a]	maximal electroshock-induced seizures	208
Fc1ccc(-n2c(-c3cccc(Cl)c3)n[nH]c2=S)cc1	maximal electroshock-induced seizures	35.2
Fc1ccc(-n2c(-c3ccc(Cl)cc3)n[nH]c2=S)c(F)c1 [Compound 13a]	maximal electroshock-induced seizures	104
S=c1[nH]nc(-c2ccc(Cl)cc2)n1-c1ccccc1Br [Compound 15a]	maximal electroshock-induced seizures	183
S=c1[nH]nc(-c2cccc(Cl)c2)n1-c1ccc(Cl)cc1	maximal electroshock-induced seizures	90.1

----------
test system: maximal electroshock-induced seizures; assay: Maximal electroshock-induced seizure (MES) test in mice; assay type: in vivo, mouse; settings: 300 mg/kg i.p., pretreatment time 120 min, mice
experimental_endpoint: p/t, number of animals protected against MES-induced seizures / number tested

compound	assay_result
Fc1ccc(N2CCN(Cn3nc(-c4cccc(Cl)c4)n(-c4ccc(Br)cc4)c3=S)CC2)cc1 [Compound 21a]	0/8
Fc1cccc(-n2c(-c3cccc(Cl)c3)n[nH]c2=S)c1	0/8
Fc1ccc(N2CCN(Cn3nc(-c4ccc(Cl)cc4)n(-c4ccccc4Br)c3=S)CC2)cc1 [Compound 27a]	0/8
S=c1n(CN2CCOCC2)nc(-c2ccc(Cl)cc2)n1-c1ccccc1Br [Compound 25a]	0/8
Cc1ccccc1-n1c(-c2cccc(Cl)c2)n[nH]c1=S	0/8
Cc1ccc(-n2c(-c3cccc(Cl)c3)n[nH]c2=S)cc1 [Compound 10a]	6/8
CCN(CC)c1ccc(-n2c(-c3ccc(Cl)cc3)n[nH]c2=S)cc1 [Compound 18a]	0/8
S=c1[nH]nc(-c2cccc(Cl)c2)n1-c1ccc(Cl)cc1	7/8
Cc1ccc(-n2c(-c3cccc(Cl)c3)nn(CN3CCN(c4ccccc4)CC3)c2=S)cc1 [Compound 23a]	0/8
Cc1cccc(-n2c(-c3cccc(Cl)c3)n[nH]c2=S)c1	1/8
Fc1ccccc1-n1c(-c2ccc(Cl)cc2)n[nH]c1=S [Compound 12a]	7/8
S=c1[nH]nc(-c2ccc(Cl)cc2)n1-c1ccccc1Br [Compound 15a]	7/8
S=c1n(CN2CCN(c3ccccc3)CC2)nc(-c2ccc(Cl)cc2)n1-c1ccccc1Br [Compound 26a]	0/8
